The molecules listed here are annotated with their Ki.
# Target Or Test System: UniProt:P56560
# Sequence (P56560 whole entry, looked up): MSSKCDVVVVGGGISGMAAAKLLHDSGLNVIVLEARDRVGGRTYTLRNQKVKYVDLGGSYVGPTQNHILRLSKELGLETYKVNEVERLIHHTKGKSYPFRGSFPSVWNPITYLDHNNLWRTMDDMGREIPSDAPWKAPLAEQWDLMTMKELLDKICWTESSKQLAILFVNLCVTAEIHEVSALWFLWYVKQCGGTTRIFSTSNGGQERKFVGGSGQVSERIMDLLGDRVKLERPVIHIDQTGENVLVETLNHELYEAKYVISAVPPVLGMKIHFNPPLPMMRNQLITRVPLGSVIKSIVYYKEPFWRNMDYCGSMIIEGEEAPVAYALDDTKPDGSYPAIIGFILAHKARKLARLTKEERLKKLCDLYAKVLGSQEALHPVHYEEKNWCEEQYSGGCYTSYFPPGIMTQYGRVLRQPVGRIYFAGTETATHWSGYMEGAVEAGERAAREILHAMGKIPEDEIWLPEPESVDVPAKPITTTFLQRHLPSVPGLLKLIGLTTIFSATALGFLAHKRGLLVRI

Look over these answered cases.
>>> df
                                   molecule     value
0  Cn1cccc1C(=O)C(c1ccccc1)N1CCSCC1 (stereo unspecified)  > 100 µM
1  CCOc1ccc(NC(C(=O)c2cccn2C)c2ccccc2)cc1 (stereo unspecified)  > 100 µM
2  Cn1cccc1C(=O)C(c1ccccc1)N1CCOCC1 (stereo unspecified)  > 100 µM
3  Cn1cccc1C(O)C(c1ccccc1)N1CCCCC1 (stereo in doubt)     46 µM
4  CN1CCN(C(C(=O)c2cccn2C)c2ccccc2)CC1 (stereo unspecified)  > 100 µM

Next item in the queue.
Q: Would you kindly share the measured Ki for "Cn1cccc1C(=O)[C@H](c1ccccc1)N1CCCCC1" ?
Ans: 410 µM

Data provenance is ChEMBL document CHEMBL1144454.
